Target: UniProt:Q7DHH4
Sequence (Q7DHH4 whole entry): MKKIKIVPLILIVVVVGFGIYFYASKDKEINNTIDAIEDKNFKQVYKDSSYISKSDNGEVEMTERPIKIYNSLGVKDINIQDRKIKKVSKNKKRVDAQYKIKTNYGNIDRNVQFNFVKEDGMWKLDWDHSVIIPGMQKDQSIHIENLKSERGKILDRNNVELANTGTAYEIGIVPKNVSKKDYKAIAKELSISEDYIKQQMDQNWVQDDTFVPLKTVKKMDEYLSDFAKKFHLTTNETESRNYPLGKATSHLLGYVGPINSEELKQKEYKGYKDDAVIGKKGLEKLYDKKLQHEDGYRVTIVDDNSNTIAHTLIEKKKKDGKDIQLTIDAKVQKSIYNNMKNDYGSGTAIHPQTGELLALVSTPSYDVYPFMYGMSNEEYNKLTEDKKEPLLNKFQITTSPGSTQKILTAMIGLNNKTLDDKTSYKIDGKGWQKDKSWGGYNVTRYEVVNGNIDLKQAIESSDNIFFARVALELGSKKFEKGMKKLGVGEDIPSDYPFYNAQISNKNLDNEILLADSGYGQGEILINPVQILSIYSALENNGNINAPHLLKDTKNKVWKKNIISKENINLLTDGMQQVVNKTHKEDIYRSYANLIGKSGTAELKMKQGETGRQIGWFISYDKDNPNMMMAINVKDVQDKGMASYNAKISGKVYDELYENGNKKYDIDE
Experiment: Binding affinity against PBP2a receptor by competition analysis with [3H]benzylpenicillin using cell membrane fractions from the MRSA COL strain.
endpoint: IC50 (µM)

chemicalSmiles | targetUnderTest | unitDescriptor | readoutNumber
C[C@@H](O)[C@H]1C(=O)N2C(C(=O)O)=C(c3ccc4c(c3)-c3ccc(C[N+]56CC[N+](CC(=O)Nc7cccnc7)(CC5)CC6)cc3C4=O)[C@H](C)[C@H]12.[Cl-].[Cl-] | UniProt:Q7DHH4 | µM | 0.611
C[C@@H](O)[C@H]1C(=O)N2C(C(=O)O)=C(c3ccc4c(c3)-c3ccc(C[N+]56CC[N+](CC(=O)c7ccccc7)(CC5)CC6)cc3C4=O)[C@H](C)[C@H]12.[Cl-].[Cl-] | UniProt:Q7DHH4 | µM | 0.88
COc1cccc(NC(=O)C[N+]23CC[N+](Cc4ccc5c(c4)C(=O)c4ccc(C6=C(C(=O)O)N7C(=O)[C@H]([C@@H](C)O)[C@H]7[C@H]6C)cc4-5)(CC2)CC3)c1.[Cl-].[Cl-] | UniProt:Q7DHH4 | µM | 2.43
C[C@@H](O)[C@H]1C(=O)N2C(C(=O)O)=C(c3ccc4c(c3)-c3ccc(C[N+]56CC[N+](CC(=O)NC7CCCC7)(CC5)CC6)cc3C4=O)[C@H](C)[C@H]12.[Cl-].[Cl-] | UniProt:Q7DHH4 | µM | 1.41
CC(=O)c1cccc(NC(=O)C[N+]23CC[N+](Cc4ccc5c(c4)C(=O)c4ccc(C6=C(C(=O)O)N7C(=O)[C@H]([C@@H](C)O)[C@H]7[C@H]6C)cc4-5)(CC2)CC3)c1.[Cl-].[Cl-] | UniProt:Q7DHH4 | µM | 1.29
C[C@@H](O)[C@H]1C(=O)N2C(C(=O)O)=C(c3ccc4c(c3)-c3ccc(C[N+]56CC[N+](CC(=O)NCc7ccccc7)(CC5)CC6)cc3C4=O)[C@H](C)[C@H]12.[Cl-].[Cl-] | UniProt:Q7DHH4 | µM | 1.32
C[C@@H](O)[C@H]1C(=O)N2C(C(=O)O)=C(c3ccc4c(c3)-c3ccc(C[N+]56CC[N+](CC(=O)NC(C)(C)C)(CC5)CC6)cc3C4=O)[C@H](C)[C@H]12.[Cl-].[Cl-] | UniProt:Q7DHH4 | µM | 3.43
C[C@@H](O)[C@H]1C(=O)N2C(C(=O)O)=C(c3ccc4c(c3)-c3ccc(C[N+]56CC[N+](CC(=O)Nc7ccccc7)(CC5)CC6)cc3C4=O)[C@H](C)[C@H]12.[Cl-].[Cl-] | UniProt:Q7DHH4 | µM | 1.78
C[C@@H](O)[C@H]1C(=O)N2C(C(=O)O)=C(c3ccc4c(c3)-c3ccc(C[N+]56CC[N+](CCCO)(CC5)CC6)cc3C4=O)[C@H](C)[C@H]12.[Cl-].[Cl-] | UniProt:Q7DHH4 | µM | 0.729
COc1ccc(NC(=O)C[N+]23CC[N+](Cc4ccc5c(c4)C(=O)c4ccc(C6=C(C(=O)O)N7C(=O)[C@H]([C@@H](C)O)[C@H]7[C@H]6C)cc4-5)(CC2)CC3)cc1.[Cl-].[Cl-] | UniProt:Q7DHH4 | µM | 1.19

====

System: Enterococcus faecalis
Test: Antibacterial activity against vancomycin-resistant Enterococcus faecalis strain
Assay type: functional
// MIC lookup, one value per entry

compound | targetUnderTest | MIC
C[C@@H](O)[C@H]1C(=O)N2C(C(=O)O)=C(SCCNC=N)C[C@H]12 [IMIPENEM ANHYDROUS] | Enterococcus faecalis | 8 µg/mL
C[C@@H](O)[C@H]1C(=O)N2C(C(=O)[O-])=C(c3ccc4c(c3)-c3ccc(C[N+]56CC[N+](CC(N)=O)(CC5)CC6)cc3C4=O)[C@H](C)[C@H]12.[Cl-] | Enterococcus faecalis | 8 µg/mL
CN[C@H](CC(C)C)C(=O)N[C@H]1C(=O)N[C@@H](CC(N)=O)C(=O)N[C@H]2C(=O)N[C@H]3C(=O)N[C@H](C(=O)N[C@H](C(=O)O)c4cc(O)cc(O)c4-c4cc3ccc4O)[C@H](O)c3ccc(c(Cl)c3)Oc3cc2cc(c3O[C@@H]2O[C@H](CO)[C@@H](O)[C@H](O)[C@H]2O[C@H]2C[C@](C)(N)[C@H](O)[C@H](C)O2)Oc2ccc(cc2Cl)[C@H]1O | Enterococcus faecalis | 32 µg/mL
C[C@@H](O)[C@H]1C(=O)N2C(C(=O)[O-])=C(c3ccc4c(c3)-c3ccc(C[N+]56CC[N+](CC(N)=O)(CC5)CC6)cc3C4=O)C[C@H]12.[Cl-] | Enterococcus faecalis | 2 µg/mL
C[C@@H](O)[C@H]1C(=O)N2C(C(=O)[O-])=C(c3ccc4c(c3)-c3ccc(C[n+]5ccn(C)c5)cc3C4=O)C[C@H]12 | Enterococcus faecalis | 1 µg/mL

Reference source for all entries: ChEMBL document CHEMBL1131884
